FYI, the data here is from patent US20170210813A1.

- TESTED_SYSTEM: T1, hPDGFRb.mmh (human, UniProt P09619 33-531)
- T1 construct: Soluble monomeric construct; also called soluble human PDGFR-beta.mmh
- T1 sequence (P09619 other isoform, or with tags, fused parts or gaps): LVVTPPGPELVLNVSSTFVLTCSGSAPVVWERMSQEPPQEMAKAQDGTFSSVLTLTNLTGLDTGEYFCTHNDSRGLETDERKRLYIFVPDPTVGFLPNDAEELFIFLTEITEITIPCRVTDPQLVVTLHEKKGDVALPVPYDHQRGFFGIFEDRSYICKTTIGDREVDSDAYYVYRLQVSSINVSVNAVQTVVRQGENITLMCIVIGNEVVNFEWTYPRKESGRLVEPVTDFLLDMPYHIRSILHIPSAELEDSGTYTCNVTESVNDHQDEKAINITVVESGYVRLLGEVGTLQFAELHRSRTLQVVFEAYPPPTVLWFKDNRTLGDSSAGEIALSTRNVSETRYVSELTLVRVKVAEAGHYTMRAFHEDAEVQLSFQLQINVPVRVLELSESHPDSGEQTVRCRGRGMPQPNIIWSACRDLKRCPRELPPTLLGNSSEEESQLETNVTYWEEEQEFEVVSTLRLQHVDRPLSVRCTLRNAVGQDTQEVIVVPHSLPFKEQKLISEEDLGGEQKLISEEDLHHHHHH
- PROTOCOL_DESCRIPTION: SPR, mAb captured, 25 C
REPORTED_PROPERTY: t1/2
Number first, unit second: that is the form wanted.

These recorded examples may help you get a feel for the data.
[
  {
    "BINDER": "H4H3098S (antibody, human IgG4, V domains shown, human IgG4 Fc (H4H prefix)) VH: EVQLVESGGGVVQPGRSLRLSCAASGFTFSNYGMHWVRQAPGKGLEWVTVIWYDGSYKYYADSVKGRFTISRDNSKNRLYLQMNSLRAEDTAVYYCARGELGDAFDIWGQGTMVTVSS VL: DIQMTQSPSTLSASVGDRLTITCRASQSISTWLAWYQQKPGKAPTLLIYKASSLESGVPSRFSGSGSGTDFTLTISSLQPDDFATYYCQQYKTSWTFGQGTKLEIKR",
    "t1/2": "19 min"
  },
  {
    "BINDER": "H2M3373N (antibody, V domains shown, mouse Fc (H2M prefix; isotype not spelled out)) VH: EVQLRDSGGGLVQPGGSLRLSCVASGFTFSSYWMSWVRQAPGKGLEWVVNINRDGSEKYYVDSVKGRFIISRDNTKNSLYLQMESLRAEDTAVYYCARDPPYHLYGMDVWGQGTTVTVSS VL: DIQMTQSPSSLSASVGDRVTITCRTSQGIRVDLAWYQQKPGKAPERLIYAASSLQSGVPSRFSGGGSGTEFTLTVSSLQPEDFATYYCLQHHNFPYTFGQGTKLEIK",
    "t1/2": "5 min"
  },
  {
    "BINDER": "H4H3104S (antibody, human IgG4, V domains shown, human IgG4 Fc (H4H prefix)) VH: QVQLVESGGGLVQPGGSLRLSCAAAGFTFSHYWMSWVRQAPGKGLEWVATIKKDGSERYYVDSVKGRFTISRDNARNSMYLEMNSLRTEDTAIYYCARDIVTPNTDYYFGMDVWGQGTTVTVSS VL: DIQLTQSPSTLSASVGDRVTITCRASQSFNNWLSWYQQKPGKAPKLLIYMASTLESGVPSRFSGSGSGTDFTLTINSLQPDDFATYYCQQSNSYSRTFGHGTKVEIK",
    "t1/2": "17 min"
  }
]

Let us move to another entry and its t1/2.
# input binder: H4H3106S (antibody, human IgG4, V domains shown, human IgG4 Fc (H4H prefix)) VH: QVQLVESGGGLVQPGGSLRLSCAASGFTFSSYWMSWVRQVPGKGLEWVANMNQDGTEKYYVDSVKGRLTISRENVKNSLYLQMNGLRAEDTAVYYCARDLVPPRQGDYYYYFGMDVWGHGTMVTVSS VL: AIQMTQSPSTLSASVGDIVTITCRASQSISDWLAWYQQKPGKAPKLLIFKASSLESGVPSRFSGSGSGTDFTLTISSLQPDDFATYYCQQYNSYSRTFGQGTKVDIK ; wanted: its t1/2 16 min
